// endpoint pIC50 / system AT2 Receptor (AT2R) (Homo sapiens (Human), UniProt P50052)
pIC50: −log10 of the molar value.

compound	pIC50
O=C(O)[C@@H]1[C@H]2CC[C@@H](CN1C(=O)N(c1ccccc1)c1ccccc1)N2C(=O)N1CCCCC1c1ccccc1 (stereo partly drawn) [Compound C146]	7.85
CCN(Cc1csc(Cl)c1)C(=O)N1[C@H]2CC[C@@H]1[C@@H](C(=O)O)N(C(=O)N(c1ccccc1)c1ccccc1)C2 [Compound C274]	7.70
O=C(O)[C@H]1[C@@H]2CC[C@H](CN1C(=O)N(c1ccccc1)c1ccccc1)N2C(=O)N(c1ccccc1)c1ccccc1 [Compound C13]	7.65
CN(Cc1ccc(C(F)(F)F)cc1)C(=O)N1[C@H]2CC[C@@H]1[C@@H](C(=O)O)N(C(=O)N(c1ccccc1)c1ccccc1)C2 [Compound C169]	8.14
O=C(O)[C@@H]1[C@@H]2CC[C@@H](CC2OCc2ccccc2Cl)N1C(=O)C(c1ccccc1)c1ccccc1 (stereo partly drawn) [Compound C294]	6.18
CCN(Cc1csc2ccccc12)C(=O)N1[C@H]2CC[C@@H]1[C@@H](C(=O)O)N(C(=O)N(c1ccccc1)c1ccccc1)C2 [Compound C245]	7.98
